Target: SALL4 ZFC4 G921D (HT-SELEX) (Mus musculus, UniProt Q8BX22 870-940, G921D)
Sequence: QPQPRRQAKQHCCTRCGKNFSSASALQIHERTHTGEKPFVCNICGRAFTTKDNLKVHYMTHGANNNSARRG
Assay: HT-SELEX; high values mean tight binding
Settings: protein: recombinant; vector His6-GST; dsDNA, one strand shown
measurementName: binding signal (fold-change vs cycle 0)
Quick reminder: number only, in fold-change vs cycle 0, skip the unit.

# count of solved cases: 5
I am curious: what binding signal value has been reported for ACCACA ? 0.841

Further, for AAGTGC ? 0.76

Further, for GCGTCA ? 0.39

Further, for AACTCA ? 1.4

Further, for AGCTTG ? 0.841

--- query ---
I am curious: what binding signal value has been reported for TAGACA ? 1.28

====

Target: SALL4 ZFC4 WT (HT-SELEX) (Mus musculus, UniProt Q8BX22 870-940)
Sequence: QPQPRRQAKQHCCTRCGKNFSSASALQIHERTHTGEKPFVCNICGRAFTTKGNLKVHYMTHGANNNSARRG
Assay: HT-SELEX; high values mean tight binding
Conditions: protein: recombinant; vector His6-GST; dsDNA, one strand shown
measurementName: binding signal (fold-change vs cycle 0)
Quick reminder: number only, in fold-change vs cycle 0, skip the unit.

Short answer please: binding signal, SALL4 ZFC4 WT (HT-SELEX) (Mus musculus, UniProt Q8BX22 870-940), entry CAGTGG 0.426

Further, for CTTGAC ? 0.777

Further, for ACTTAG ? 1.38

Further, for AAGAGT ? 1.42

Further, for CGAGTA ? 0.742

Further, for CACTCA ? 0.83

Further, for GTTCCA ? 0.74

Further, for GTGTCA ? 0.688

Further, for ATTAGC ? 1.14

Further, for GTGACA ? 0.691

---
Short answer please: binding signal, SALL4 ZFC4 WT (HT-SELEX) (Mus musculus, UniProt Q8BX22 870-940), entry ATATGA 3.11

Further, for AAGAAC ? 1.29

Further, for ATTGAG ? 1.27

Further, for AAGTGT ? 1.24

Further, for ACCGGT ? 0.368

Further, for AAGACC ? 0.72

Further, for CGTGGA ? 0.351

Further, for CTCAGA ? 0.791

Further, for ACCCAC ? 0.443

Further, for TAGGGA ? 0.931

Further, for CGTATC ? 0.723

Further, for AGGAAA ? 1.31

====

Biological target: SALL4 ZFC4 G921D (HT-SELEX) (Mus musculus, UniProt Q8BX22 870-940, G921D)
Sequence: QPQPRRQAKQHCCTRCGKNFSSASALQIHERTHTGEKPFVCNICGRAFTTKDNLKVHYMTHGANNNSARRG
Assay: HT-SELEX; high values mean tight binding
Details: protein: recombinant; vector His6-GST; dsDNA, one strand shown
Use binding signal to assign classes; range list: low value = under 0.7 fold-change vs cycle 0, medium value = from 0.7 fold-change vs cycle 0 up to 1 fold-change vs cycle 0, high value = 1 fold-change vs cycle 0 and over

Check out these entries, answers already filled in.
GET /class?item= ATGGCA medium value

Further, for TAAACA ? high value

Further, for CGCAAC ? low value

Further, for AATTTG ? high value

Further, for CACGAG ? low value

---
GET /class?item= CCTTAA high value

Further, for CCTTAC ? high value

Further, for ATGCAC ? medium value
